Reference source for all entries: ChEMBL document CHEMBL5360537

target.or.system: P2X purinoceptor 7 (Homo sapiens, UniProt Q99572)
Sequence (Q99572 whole entry): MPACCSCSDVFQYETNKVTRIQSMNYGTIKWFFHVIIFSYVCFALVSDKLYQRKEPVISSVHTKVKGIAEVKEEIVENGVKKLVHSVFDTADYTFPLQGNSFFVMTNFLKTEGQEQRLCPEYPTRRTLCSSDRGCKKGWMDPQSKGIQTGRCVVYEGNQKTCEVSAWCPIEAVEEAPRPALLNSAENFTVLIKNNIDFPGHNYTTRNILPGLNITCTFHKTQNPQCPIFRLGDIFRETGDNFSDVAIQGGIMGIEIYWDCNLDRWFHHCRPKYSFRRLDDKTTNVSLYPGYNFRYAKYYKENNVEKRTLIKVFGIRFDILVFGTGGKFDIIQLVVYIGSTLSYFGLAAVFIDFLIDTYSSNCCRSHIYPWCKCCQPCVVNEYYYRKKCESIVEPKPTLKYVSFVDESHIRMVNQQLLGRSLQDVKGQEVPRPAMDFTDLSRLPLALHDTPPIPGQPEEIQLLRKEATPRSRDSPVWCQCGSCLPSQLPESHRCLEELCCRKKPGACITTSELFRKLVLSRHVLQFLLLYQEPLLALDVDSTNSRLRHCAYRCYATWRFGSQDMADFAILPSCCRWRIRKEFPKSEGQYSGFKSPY
test.method.notes: Antagonist activity at human P2X7 receptor expressed in HEK293 by fluorescence plate reader analysis
Format: cell-based
IC50: recorded values

Examples from the recorded data:
COCCn1cc(C(=O)NCc2ccc3c(c2)OCO3)c2c(Cl)cccc21 :: > 1000 nM
COCCn1cc(C(=O)NC[C@@]2(O)CCCC(F)(F)C2)c2c(Cl)cccc21 :: < 10 nM
CCOC(C)CNC(=O)c1cn(C2COC2)c2cccc(Cl)c12 (centres undefined) :: > 1000 nM
C[C@@H]1CCC[C@](O)(CNC(=O)c2cn(CC3CCCO3)c3cccc(Cl)c23)C1 (some centres undefined) :: 10 nM
C[C@H]1CCC[C@@](O)(CNC(=O)c2cn(CCC(F)F)c3cccc(Cl)c23)C1 :: < 10 nM

### Prompt Note down IC50 recorded for CC1CCCC(O)(CNC(=O)c2cn(C3COC3)c3cccc(Cl)c23)C1 (centres undefined)
### Response < 10 nM

### Prompt Note down IC50 recorded for COCCn1cc(C(=O)NCc2nc3ccccc3s2)c2c(Cl)cccc21
### Response > 1000 nM

### Prompt Note down IC50 recorded for COCCn1cc(C(=O)NCc2ccco2)c2c(Cl)cccc21
### Response > 1000 nM

### Prompt Note down IC50 recorded for COCCn1cc(C(=O)NCc2ccc(C(F)(F)F)cc2)c2c(Cl)cccc21
### Response > 1000 nM
